Reference source: patent US7071300

target: IGF-1 (human, UniProt P05019); experiment: competition, IGF-1 phage binding to IGFBP-3
Sequence (P05019 49-118): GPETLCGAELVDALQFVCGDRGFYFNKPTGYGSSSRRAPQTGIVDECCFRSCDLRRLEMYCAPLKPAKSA
PROPERTY LABEL: IC50 (µM)

# BINDER, UNIT OF MEASUREMENT, IC50
data = [
    ("FECLTSVEALRGCMYG [F1-3]", "µM", 12.8),
]

I = MDCLASVEALKWCMYG [F1-2]
II = RNCFESVAALRRCMYG [F1-1]
Higher IC50: I or II ? Reply with the label of the item you choose.
I
